Experiment: Aqueous and 1-octanol solubility (excess drug, shaking 48 h, UPLC-UV)
Type: physicochemical
Condition: water, thermodynamic from solid, Figure 1C source data; read-out: water solubility, individual replicates
Description: Samples were centrifuged at 20,000 × g for 10 min to separate the solubilized drug from insoluble pellet. Aqueous supernatants were frozen, lyophilized, and then resuspended in MeOH. 1-octanol supernatants were prepared for analysis by dilution in MeOH and samples analyzed for drug content by UPLC-UV (Waters Acquity H Class).
Value Type: solubility at 48 h (µg/mL)
Hi! Could you send only the number? It should be in µg/mL, unit omitted.

Entry CC(C)OC(=O)[C@H](C)N[P@](=O)(CO[C@H](C)Cn1cnc2c(N)ncnc21)Oc1ccccc1 [TAF, tenofovir alafenamide] , solubility at 48 h reported as 6160

Please fill in: solubility at 48 h reported for CCCCCCCCCCCCCCCCCCCCCCOC(=O)[C@H](C)NP(=O)(CO[C@H](C)Cn1cnc2c(N)ncnc21)Oc1ccccc1 (stereo partly drawn) = 12.8

Given item CCCCCCCCCCCCCCCCCCCCCCOC(=O)[C@H](Cc1ccccc1)NP(=O)(CO[C@H](C)Cn1cnc2c(N)ncnc21)Oc1ccccc1 (stereo partly drawn) , the value recorded as its solubility at 48 h is 0.276
